Data origin: patent US20100183625A1

target or test system: T1, human plasma kallikrein (human, UniProt P03952 20-390; P03952 391-638)
T1 construct: also called pKal; human pKal
T1 sequence (P03952 20-390, chain 1 of 2): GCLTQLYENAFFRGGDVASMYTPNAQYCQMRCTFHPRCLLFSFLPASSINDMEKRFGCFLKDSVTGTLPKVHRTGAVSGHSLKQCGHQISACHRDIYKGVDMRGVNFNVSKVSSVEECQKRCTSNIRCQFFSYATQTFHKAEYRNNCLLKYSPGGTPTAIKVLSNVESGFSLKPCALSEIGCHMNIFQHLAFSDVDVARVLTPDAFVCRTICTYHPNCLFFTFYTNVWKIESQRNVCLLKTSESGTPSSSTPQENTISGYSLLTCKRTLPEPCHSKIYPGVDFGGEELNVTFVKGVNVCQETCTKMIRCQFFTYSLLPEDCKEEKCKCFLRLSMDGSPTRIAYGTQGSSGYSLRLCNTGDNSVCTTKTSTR
T1 sequence (P03952 391-638, chain 2 of 2): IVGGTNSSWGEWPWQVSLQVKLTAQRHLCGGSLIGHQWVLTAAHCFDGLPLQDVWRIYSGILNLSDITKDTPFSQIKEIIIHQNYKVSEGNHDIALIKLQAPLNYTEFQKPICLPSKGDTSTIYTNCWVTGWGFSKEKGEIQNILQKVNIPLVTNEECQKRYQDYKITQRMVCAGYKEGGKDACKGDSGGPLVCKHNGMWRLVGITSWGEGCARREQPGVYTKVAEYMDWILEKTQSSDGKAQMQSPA
assay summary: ELISA; signal on biotinylated plasma kallikrein divided by signal on streptavidin background
observation type: ELISA (T/B) (T/B ratio)
State just the number; it will be interpreted in T/B ratio.

Memo: M142-H08 (antibody, V domains shown) VH: EVQLLESGGGLVQPGGSLRLSCAASGFTFSAYSMIWVRQAPGKGLEWVSYIRPSGGRTTYADSVKGRFTISRDNSKNTLYLQMNSLRAEDTAVYYCARGGLLLWFRELKSNYFDYWGQGTLVTVSS VL: DIQMTQSPSSLSAFVGDRVTITCRASQPIDNYLNWYHQKPGKAPKLLIYAASRLQSGVPSRLSGSGFGTDFTLTISSLQPEDFGNYYCQQSYTVPYTFGGGTKVEIR , reported ELISA (T/B): 29.9

Memo: M76-D01 (antibody, V domains shown) VH: EVQLLESGGGLVQPGGSLRLSCAASGFTFSFYAMHWVRQAPGKGLEWVSGIVPSGGRTHYADSVKSRFTISRDNSKNTLYLQMNSLRAEDTAVYYCATDSSGSPNPLFDYWGQGTLVTVSS VL: DIVMTQTPPSLPVNPGEPASISCRSSQSLSDDGNTYLDWYLQRPGQSPQLLIHTLSYRASGVPDRFSGSGSGTDFTLKISRVEAEDVGVYYCMQGTHWPPTFGQGTKVEIK , reported ELISA (T/B): 11.2

Memo: M161-C11 (antibody, V domains shown) VH: EVQLLESGGGLVQPGGSLRLSCAASGFTFSDYAMKWVRQAPGKGLEWVSSISSSGGVTQYADSVKGRFTISRDNSKNTLYLQMNSLRAEDTAVYYCAREEDYSSSWYSRRFDYYYGMDVWGQGTTVTVSS VL: QSALTQPPSVSVSPGQTASITCSGDKLGDKYVSWYQQRPGQSPVLVIYQDTKRPSGIPERFSGSNSGNTATLTISGTQAVDEADYYCQAWDSSTYVFGGGTKVTVL , reported ELISA (T/B): 41.8

Memo: M73-D06 (antibody, V domains shown) VH: EVQLLESGGGLVQPGGSLRLSCAASGFTFSRYEMYWVRQAPGKGLEWVSSISSSGGPTAYADSVKGRFTISRDNSKNTLYLQMNSLRAEDTAMYYCAKGTPKWELLLRSIYIENAFDIWSQGTMVTVSS VL: QSELTQPPSASETPSQRVTISCSGSSSNIGSNTVSWFQQLPGSAPRLLIYNDHRRPSGVPDRFSGSKSGTSASLVISGLQSQDEADYYCSAWDDSLNGVVFGGGTKLTVL , reported ELISA (T/B): 4

Memo: M12-B05 (antibody, V domains shown) VH: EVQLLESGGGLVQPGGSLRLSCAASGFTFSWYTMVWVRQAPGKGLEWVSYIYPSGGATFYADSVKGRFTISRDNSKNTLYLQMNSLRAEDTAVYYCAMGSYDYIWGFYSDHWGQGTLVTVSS VL: QSALTQPPTVSVSPGQTARITCSGNKLGDKYVAWYQQKPGQSPMLVIYQDTKRPSRVSERFSGSNSANTATLSISGTQALDEADYYCQAWDSSIVIFGGGTRLTVL , reported ELISA (T/B): 38.4

Memo: M162-A04 (antibody, V domains shown) VH: EVQLLESGGGLVQPGGSLRLSCAASGFTFSHYIMMWVRQAPGKGLEWVSGIYSSGGITVYADSVKGRFTISRDNSKNTLYLQMNSLRAEDTAVYYCAYRRTGIPRRDAFDIWGQGTMVTVSS VL: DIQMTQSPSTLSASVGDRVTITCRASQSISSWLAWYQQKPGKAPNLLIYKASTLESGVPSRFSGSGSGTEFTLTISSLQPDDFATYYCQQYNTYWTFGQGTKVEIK , reported ELISA (T/B): 11.4

Others:
Memo: M110-C12 (antibody, V domains shown) VH: EVQLLESGGGLVQPGGSLRLSCAASGFTFSYYEMDWVRQAPGKGLEWVSGISSSGGHTAYADSVKGRFTISRDNSKNTLYLQMNSLRAEDTATYYCARERRSSSRARYYYGMDVWGQGTTVTVSS VL: DIQMTQSPLSLSVTPGEPASISCRSSLSLLHSNGYNYLDWYVQRPGQSPQLLMYLSSTRASGVPDRFSGSGSGTDFTLEISRVEAEDVGVYYCMQPLETPPTFGGGTKVEIK , reported ELISA (T/B): 2.4

Memo: M6-D09 (antibody, V domains shown) VH: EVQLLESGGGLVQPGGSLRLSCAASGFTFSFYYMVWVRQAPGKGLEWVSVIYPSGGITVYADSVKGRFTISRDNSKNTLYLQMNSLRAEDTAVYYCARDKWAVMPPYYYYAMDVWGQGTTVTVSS VL: DIQMTQSPSSLSASVSDRVTITCRASQSIRNYLNWYQQKPSKAPNLLIYAASTLQSGVPARFSGSGSGTDFTLTISSLQPEDFATYYCQQLSGYPHTFGQGTKLEIK , reported ELISA (T/B): 39.9

Memo: M29-E09 (antibody, V domains shown) VH: EVQLLESGGGLVQPGGSLRLSCAASGFTFSWYEMGWVRQAPGKGLEWVSSIYSSGGGTMYADSVKGRFTISRDNSKNTLYLQMNSLRAEDTAVYYCARNPQYSGYDRSLSDGAFDIWGQGTMVTVSS VL: QYELTQPPSVSVSPSQTATITCSGDNLGNKYNSWYQQKPGQSPLLVIYQDTKRPSAIPERFSGSNSGNTAILTISGTQAMDEADYYCQAWDGNVVFGGGTKLTVL , reported ELISA (T/B): 28.8

Memo: M145-D01 (antibody, V domains shown) VH: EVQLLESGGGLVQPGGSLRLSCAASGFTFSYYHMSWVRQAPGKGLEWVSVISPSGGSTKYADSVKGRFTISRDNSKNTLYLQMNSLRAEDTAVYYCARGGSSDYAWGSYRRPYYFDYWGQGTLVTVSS VL: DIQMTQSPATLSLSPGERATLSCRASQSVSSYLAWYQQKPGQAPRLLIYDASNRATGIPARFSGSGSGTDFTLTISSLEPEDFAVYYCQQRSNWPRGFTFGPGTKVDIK , reported ELISA (T/B): 6.2
